Reported IC50 is given for each of the following molecules.
molecular target: human ACC2 (Homo sapiens (Human), UniProt O00763); assay: ACC2 assay (spectrophotometric 384 well assay, NADH-linked coupled lactate dehydrogenase/pyruvate kinase); format: biochemical; details: hACC2 construct lacking 128 N-terminal amino acids; 25° C., 340 nm, 15 minutes
Sequence (O00763 129-2458): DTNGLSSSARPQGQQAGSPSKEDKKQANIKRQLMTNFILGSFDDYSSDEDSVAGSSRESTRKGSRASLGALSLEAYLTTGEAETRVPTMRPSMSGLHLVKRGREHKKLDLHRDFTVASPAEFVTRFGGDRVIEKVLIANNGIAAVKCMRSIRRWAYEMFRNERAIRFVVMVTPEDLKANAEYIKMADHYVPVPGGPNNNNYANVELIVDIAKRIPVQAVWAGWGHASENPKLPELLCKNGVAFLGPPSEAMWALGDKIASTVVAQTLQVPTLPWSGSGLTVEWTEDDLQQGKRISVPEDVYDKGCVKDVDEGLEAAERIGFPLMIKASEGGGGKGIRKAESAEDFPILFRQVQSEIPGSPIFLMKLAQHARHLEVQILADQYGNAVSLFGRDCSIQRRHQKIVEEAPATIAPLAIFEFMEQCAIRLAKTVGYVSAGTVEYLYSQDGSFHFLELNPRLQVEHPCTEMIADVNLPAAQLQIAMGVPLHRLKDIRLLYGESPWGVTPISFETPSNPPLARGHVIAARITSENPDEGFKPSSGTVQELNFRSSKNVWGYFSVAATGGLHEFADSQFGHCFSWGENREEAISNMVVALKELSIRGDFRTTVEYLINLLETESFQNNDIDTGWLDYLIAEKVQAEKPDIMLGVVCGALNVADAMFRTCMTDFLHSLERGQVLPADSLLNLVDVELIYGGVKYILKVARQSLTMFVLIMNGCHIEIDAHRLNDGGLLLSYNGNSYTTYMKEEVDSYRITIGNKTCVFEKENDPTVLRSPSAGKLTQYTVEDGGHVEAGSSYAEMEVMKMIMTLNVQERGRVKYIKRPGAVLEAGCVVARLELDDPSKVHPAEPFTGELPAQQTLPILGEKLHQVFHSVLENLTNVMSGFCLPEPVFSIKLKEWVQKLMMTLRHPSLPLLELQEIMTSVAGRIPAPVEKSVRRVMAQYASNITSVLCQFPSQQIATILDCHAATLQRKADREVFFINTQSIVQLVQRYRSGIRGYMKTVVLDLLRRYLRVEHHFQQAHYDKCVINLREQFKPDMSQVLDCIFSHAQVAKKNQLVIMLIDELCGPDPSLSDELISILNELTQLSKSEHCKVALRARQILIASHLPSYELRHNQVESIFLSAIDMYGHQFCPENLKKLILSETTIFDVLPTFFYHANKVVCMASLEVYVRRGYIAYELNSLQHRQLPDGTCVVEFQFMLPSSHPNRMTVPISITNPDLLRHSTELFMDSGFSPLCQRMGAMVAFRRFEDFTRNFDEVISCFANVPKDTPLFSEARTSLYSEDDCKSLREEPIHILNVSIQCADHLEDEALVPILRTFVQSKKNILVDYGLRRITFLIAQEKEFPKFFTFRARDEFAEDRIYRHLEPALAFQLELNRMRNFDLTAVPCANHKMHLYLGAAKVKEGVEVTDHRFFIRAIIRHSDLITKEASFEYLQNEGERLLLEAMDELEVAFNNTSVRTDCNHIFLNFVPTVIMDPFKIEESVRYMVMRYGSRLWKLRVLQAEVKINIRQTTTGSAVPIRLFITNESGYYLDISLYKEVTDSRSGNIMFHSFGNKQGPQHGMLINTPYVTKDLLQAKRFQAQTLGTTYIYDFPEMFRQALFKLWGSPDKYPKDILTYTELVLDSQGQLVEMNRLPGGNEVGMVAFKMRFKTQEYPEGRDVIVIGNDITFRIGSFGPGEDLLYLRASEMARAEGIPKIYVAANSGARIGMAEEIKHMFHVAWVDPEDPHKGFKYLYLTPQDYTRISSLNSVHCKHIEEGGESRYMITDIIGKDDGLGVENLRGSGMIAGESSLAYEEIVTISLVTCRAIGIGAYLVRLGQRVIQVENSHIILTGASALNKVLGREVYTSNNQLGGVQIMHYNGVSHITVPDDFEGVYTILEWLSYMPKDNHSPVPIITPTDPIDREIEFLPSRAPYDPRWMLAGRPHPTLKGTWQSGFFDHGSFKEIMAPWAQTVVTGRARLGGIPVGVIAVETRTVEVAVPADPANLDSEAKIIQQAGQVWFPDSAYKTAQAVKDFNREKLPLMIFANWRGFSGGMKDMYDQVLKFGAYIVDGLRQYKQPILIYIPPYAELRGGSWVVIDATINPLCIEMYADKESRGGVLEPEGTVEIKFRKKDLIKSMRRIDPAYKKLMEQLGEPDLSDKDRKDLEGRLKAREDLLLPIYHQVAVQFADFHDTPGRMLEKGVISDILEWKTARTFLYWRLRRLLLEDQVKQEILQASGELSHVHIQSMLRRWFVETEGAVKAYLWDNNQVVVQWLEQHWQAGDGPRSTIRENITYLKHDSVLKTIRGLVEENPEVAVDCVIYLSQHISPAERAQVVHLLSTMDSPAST
Express the result in nM but write the number alone.

Example results:
- MOLECULE: "CCOc1ccc(N2CC(Oc3ccc(CC(C)NC(C)=O)cc3)C2)cc1 (centres unmarked) [Example 1.12]"
  IC50 [nM]: 5340
- MOLECULE: "CC(=O)N[C@@H](C)c1ccc(OC2CN(c3ccc(Br)c(C#N)n3)C2)cc1 [Example 4.35]"
  IC50 [nM]: 1110
- MOLECULE: "CCOc1ccc(N2CC(Oc3ccc([C@H](C)NC(=O)CCOC)cc3)C2)cc1 [Example 8.26]"
  IC50 [nM]: 2780
- MOLECULE: "CC(=O)N[C@@H](C)c1ccc(OC2CN(c3cccc(C(F)(F)F)n3)C2)cc1 [Example 4.21]"
  IC50 [nM]: 410
- MOLECULE: "CCOc1ccc(N2CC(Oc3ccc([C@H](C)NC(=O)c4ccc(C)o4)cc3)C2)cc1 [Example 8.37]"
  IC50 [nM]: 2060
- MOLECULE: "CCCOc1ccc(N2CC(Oc3ccc([C@H](C)NC(=O)N(C)C)cc3)C2)cc1 [Example 1.31]"
  IC50 [nM]: 190
- MOLECULE: "CC(=O)N[C@@H](C)c1ccc(OC2CN(c3ccnc(C(F)(F)F)n3)C2)cc1 [Example 4.9]"
  IC50 [nM]: 720

Attention now shifts to the item below.
Noted for CC(=O)N[C@@H](C)c1ccc(OC2CN(c3ccc(Cl)c(C(F)(F)F)n3)C2)cc1 [Example 4.32] : its IC50 reads 100
